Recorded values, source ChEMBL document CHEMBL3526147.

# Test system: Canis familiaris
# assay.protocol: Cmax in beagle dog treated with [14C]casopitant mesylate at 40 mg/kg/day, po administered as repeat dose measured after 26 weeks by HPLC-MS/MS method
# Format: ADME, organism-based, Canis lupus familiaris
# Design: dose 40 mg/kg/day, dosed compound name [14C]Casopitant, route oral
# measurement.parameters: in vivo, 4368 h
Cmax values for the compounds below.

compound: CC(=O)NCCN[C@H]1CCN(C(=O)N(C)[C@H](C)c2cc(C(F)(F)F)cc(C(F)(F)F)c2)[C@@H](c2ccc(F)cc2C)C1
test.system: Canis familiaris
units.of.measure: ng/mL
Cmax: 189
--
compound: CC(=O)N1CCN([C@H]2CCN(C(=O)N(C)[C@H](C)c3cc(C(F)(F)F)cc(C(F)(F)F)c3)[C@@H](c3ccc(F)cc3C)C2)CC1.CS(=O)(=O)O [CASOPITANT MESYLATE]
test.system: Canis familiaris
units.of.measure: ng/mL
Cmax: 7167
--
compound: CC(=O)N1CCN([C@H]2CCN(C(=O)N(C)[C@H](C)c3cc(C(F)(F)F)cc(C(F)(F)F)c3)[C@@H](c3ccc(F)cc3C)C2)CC1O (stereo partly drawn)
test.system: Canis familiaris
units.of.measure: ng/mL
Cmax: 4357

====

# Tested on: Canis familiaris
# assay.protocol: AUC (0 to t) in beagle dog treated with [14C]casopitant mesylate at 40 mg/kg/day, po administered as repeat dose measured after 26 weeks by HPLC-MS/MS method
# Type: ADME, organism-based, Canis lupus familiaris, Plasma
# Parameters: dosed compound name [14C]Casopitant, route oral
# measurement.parameters: in vivo, 4368 h

compound: Cc1cc(F)ccc1[C@H]1C[C@@H](NCCN)CCN1C(=O)N(C)[C@H](C)c1cc(C(F)(F)F)cc(C(F)(F)F)c1
AUCt, ng·h/mL: 1442
//
compound: CC(=O)N1CCN([C@H]2CCN(C(=O)N(C)[C@H](C)c3cc(C(F)(F)F)cc(C(F)(F)F)c3)[C@@H](c3ccc(F)cc3C)C2)CC1.CS(=O)(=O)O [CASOPITANT MESYLATE]
AUCt, ng·h/mL: 53599
//
compound: Cc1cc(F)ccc1[C@H]1C[C@@H](N2CCNCC2)CCN1C(=O)N(C)[C@H](C)c1cc(C(F)(F)F)cc(C(F)(F)F)c1
AUCt, ng·h/mL: 1803

====

# System: Plasma
# assay.protocol: Drug level in plasma of Sprague-Dawley rat treated with [14C]casopitant mesylate at 60 mg/kg/day, po administered as repeat dose measured after 24 hrs on day 20 by HPLC-MS/MS method relative to [14C]casopitant mesylate radioactivity
# Assay type: ADME, organism-based
# Set-up: dosed compound name [14C]Casopitant, route oral
# measurement.parameters: in vivo

compound: CC(=O)N1CCN([C@H]2CCN(C(=O)N(C)[C@H](C)c3cc(C(F)(F)F)cc(C(F)(F)F)c3)[C@@H](c3ccc(F)cc3C)C2)CC1=O
test.system: Plasma
Compound recovery, %: 0.2
//
compound: Cc1cc(F)ccc1[C@H]1C[C@@H](N2CCNC(=O)C2)CCN1C(=O)N(C)[C@H](C)c1cc(C(F)(F)F)cc(C(F)(F)F)c1
test.system: Plasma
Compound recovery, %: 1.2
//
compound: Cc1cc(F)ccc1[C@H]1C[C@@H](N2CCNCC2)CCN1C(=O)N(C)[C@H](C)c1cc(C(F)(F)F)cc(C(F)(F)F)c1
test.system: Plasma
Compound recovery, %: 1.5
//
compound: CC(=O)N1CCN([C@H]2CCN(C(=O)N(C)[C@H](C)c3cc(C(F)(F)F)cc(C(F)(F)F)c3)[C@@H](c3ccc(F)cc3C)C2)CC1.CS(=O)(=O)O [CASOPITANT MESYLATE]
test.system: Plasma
Compound recovery, %: 1.5
//
compound: CC(=O)N1CCN([C@H]2CCN(C(=O)N(C)[C@H](C)c3cc(C(F)(F)F)cc(C(F)(F)F)c3)[C@@H](c3ccc(F)cc3C)C2)CC1O (some centres not stated)
test.system: Plasma
Compound recovery, %: 0.3
//
compound: C[C@@H](NC(N)=O)c1cc(C(F)(F)F)cc(C(F)(F)F)c1
test.system: Plasma
Compound recovery, %: 4.6

====

# assay.protocol: Drug level in myocardium of beagle dog treated with [14C]casopitant mesylate at 40 mg/kg/day, po administered as repeat dose measured after 24 hrs on day 14 by HPLC-MS/MS method relative to [14C]casopitant mesylate radioactivity
# Format: ADME, organism-based, Canis lupus familiaris
# Set-up: dosed compound name [14C]Casopitant, route oral
# measurement.parameters: in vivo
// classify: if (Compound recovery < 2%) Met else Not met

molecule: CC(=O)N1CCN([C@H]2CCN(C(=O)N(C)[C@H](C)c3cc(C(F)(F)F)cc(C(F)(F)F)c3)[C@@H](c3ccc(F)cc3C)C2)CC1O (some centres not stated)
class.label: Not met
//
molecule: Cc1cc(F)ccc1[C@H]1C[C@@H](N2CCNCC2)CCN1C(=O)N(C)[C@H](C)c1cc(C(F)(F)F)cc(C(F)(F)F)c1
class.label: Not met
//
molecule: CC(=O)N1CCN([C@H]2CCN(C(=O)N(C)[C@H](C)c3cc(C(F)(F)F)cc(C(F)(F)F)c3)[C@@H](c3ccc(F)cc3C)C2)CC1.CS(=O)(=O)O [CASOPITANT MESYLATE]
class.label: Not met
//
molecule: Cc1cc(F)ccc1[C@H]1C[C@@H](NCCN)CCN1C(=O)N(C)[C@H](C)c1cc(C(F)(F)F)cc(C(F)(F)F)c1
class.label: Not met
//
molecule: Cc1cc(F)ccc1[C@H]1C[C@@H](N2CCNC(=O)C2)CCN1C(=O)N(C)[C@H](C)c1cc(C(F)(F)F)cc(C(F)(F)F)c1
class.label: Met
//
molecule: CC(=O)N1CCN([C@H]2CCN(C(=O)N(C)[C@H](C)c3cc(C(F)(F)F)cc(C(F)(F)F)c3)[C@@H](c3ccc(F)cc3C)C2)CC1=O
class.label: Met
